test system: Aβ40 in conditioned medium of cells stably expressing Amyloid Precursor Protein (APP); experiment: In vitro BACE cell-based assay (Aβ40 in conditioned medium, sandwich ELISA); details: Homo sapiens, HEK293, average IC50; read-out: HEK cell assay
valueType: IC50 (nM)

In the examples that follow, each entry is paired with its recorded IC50.
                             chemicalstring  recordedvalue
0  N#Cc1cccc(COc2ccc3c(c2)[C@@]2(COC(N)=N2)c2cc(-c4cccnc4)cnc2O3)c1            125
1  N#Cc1cccc(-c2ccc3c(c2)[C@@]2(COC(N)=N2)c2cc(C4=CCOCC4)nc(F)c2O3)c1              6

a = CC1(C#Cc2cnc3c(c2)[C@@]2(COC(N)=N2)c2c(ccc(-c4ccc(F)nc4)c2F)O3)COC1
b = NC1=N[C@]2(CO1)c1cc(C3=CCOCC3)cc(F)c1Oc1ccc(-c3cncnc3)c(F)c12
c = CC1(C#Cc2cnc3c(c2)[C@]2(COC(N)=N2)c2c(ccc(-c4cncnc4)c2F)O3)COC1
d = CC1(/C=C/c2cnc3c(c2)[C@]2(COC(N)=N2)c2cc(-c4cc(Cl)ccc4F)ccc2O3)COC1
e = NC1=N[C@@]2(CO1)c1cc(OCc3cccc(F)c3)ccc1Oc1ncc(-c3cccnc3)cc12
Exercise: Order each entry by recorded IC50, climbing from the minimum. Reply with the labels, ordered as the question asks.
Solution: d, c, b, e, a

---

tested on: Aβ40 in conditioned medium of cells stably expressing Amyloid Precursor Protein (APP); experiment: In vitro BACE cell-based assay (Aβ40 in conditioned medium, sandwich ELISA); details: Homo sapiens, HEK293, average IC50; read-out: HEK cell assay
pIC50: −log10 of the molar value.
valueType: pIC50

Recorded results for 3 molecules are shown here.
>>> df
                                   molecule  recordedvalue
0  NC1=N[C@@]2(CO1)c1cc(-c3ccc(F)nc3)ccc1Oc1c(F)cc(N3C[C@@H]4C[C@H]3CO4)cc12 [Example 302]           8.25
1  Cc1ccc(-c2cc(F)c3c(c2)[C@]2(COC(N)=N2)c2cc(-c4cncc(F)c4)ccc2O3)nn1 [Example 292]           7.50
2  COc1nc(-c2ccncc2)cc2c1Oc1ccc(-c3cccnc3)cc1[C@@]21COC(N)=N1 [Example 838]           7.70

a = Cc1ncncc1-c1ccc2c(c1)[C@@]1(COC(N)=N1)c1cc(-c3ccnc(F)c3)ncc1O2 [Example 809]
b = Cc1nc(F)ccc1-c1ccc2c(c1)[C@@]1(COC(N)=N1)c1cc(C3=CCOCC3)ncc1O2 [Example 251]
c = COCC1SC(N)=NC12c1cc(-c3cccnc3F)ccc1Oc1c(F)cc(OC)cc12 (stereo not shown) [Example 720]
d = CC#Cc1cncc(-c2ccc3c(c2)[C@@]2(COC(N)=N2)c2cc(C4CCOCC4)nc(F)c2O3)c1 [Example 753]
Exercise: Arrange items by their pIC50 values in increasing order. Reply format: the labels, ordered as requested.
Solution: c, a, b, d

---

tested on: Aβ40 in conditioned medium of cells stably expressing Amyloid Precursor Protein (APP); experiment: In vitro BACE cell-based assay (Aβ40 in conditioned medium, sandwich ELISA); settings: Homo sapiens, HEK293, average IC50; read-out: HEK cell assay
pIC50: −log10 of the molar value.
valueType: pIC50

In [3]: df
Out[3]:
                                   compound  recordedvalue
0  NC1=N[C@@]2(CO1)c1cc(-c3cncc(C#CC4CC4)c3)ccc1Oc1cnc(-c3ccnc(F)c3)cc12 [Example 815]           6.16
1  CC(F)(F)COc1cc(F)c2c(c1)[C@]1(CSC(N)=N1)c1cc(-c3cccnc3F)ccc1O2 [Example 724]           7.66
2  CC1(C#Cc2cnc3c(c2)[C@]2(COC(N)=N2)c2cc(-c4cccc(C#N)c4)ccc2O3)COC1 [Example 127]           8.30
3  N#Cc1cccc(-c2ccc3c(c2)[C@@]2(COC(N)=N2)c2cc(C4=CCOCC4)ncc2O3)c1 [Example 143]           8.03
4  NC1=N[C@]2(CO1)c1cc(-c3cccc(Cl)c3)ccc1Oc1cnc(C3=CCOCC3)cc12 [Example 234]           5.37

A = COc1ncccc1-c1ccc2c(c1)[C@@]1(COC(N)=N1)c1cc(-c3ccnc(F)c3)ncc1O2 [Example 239]
B = COC1CN(c2cc(F)c3c(c2)[C@]2(COC(N)=N2)c2cc(-c4cccnc4F)ccc2O3)C1 [Example 281]
Exercise: I'm curious whether A or B has the smaller pIC50 number. Which is it? Label of pick, please.
Solution: A

These measurements were taken from patent US8883782B2.
